FYI, the data here is from BindingDB's records for patent US20240287022.

test.target: UniProtKB Q96RQ9
Sequence (Q96RQ9 whole entry): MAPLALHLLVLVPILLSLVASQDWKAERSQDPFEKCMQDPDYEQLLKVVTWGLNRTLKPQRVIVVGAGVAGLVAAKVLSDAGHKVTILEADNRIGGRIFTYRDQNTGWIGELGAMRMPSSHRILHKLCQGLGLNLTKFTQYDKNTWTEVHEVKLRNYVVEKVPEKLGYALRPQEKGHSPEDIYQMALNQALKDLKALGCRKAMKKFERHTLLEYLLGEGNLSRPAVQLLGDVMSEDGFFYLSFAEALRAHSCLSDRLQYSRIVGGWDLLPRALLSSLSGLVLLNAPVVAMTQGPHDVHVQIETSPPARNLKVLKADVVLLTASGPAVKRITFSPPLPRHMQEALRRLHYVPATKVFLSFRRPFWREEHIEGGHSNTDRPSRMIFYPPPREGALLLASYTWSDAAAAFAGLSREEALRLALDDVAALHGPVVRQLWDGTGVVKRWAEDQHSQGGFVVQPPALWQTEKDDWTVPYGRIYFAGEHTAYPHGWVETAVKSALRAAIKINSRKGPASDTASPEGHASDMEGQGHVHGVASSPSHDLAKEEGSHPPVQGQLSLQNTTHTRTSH
measurement.protocol: IL4I1 Enzymatic Assay
pEC50: −log10 of the molar value.
reported.metric: pEC50

Use these answered entries as a reference point.
compound: O=c1[nH]c2ccccc2cc1Cc1ccc(C2(F)CNC2)cc1 [US20240287022, Example 76]
test.target: UniProtKB Q96RQ9
recorded.result: 8.09
--
compound: N#CCc1ccc(Cc2cc3ccccc3[nH]c2=O)cn1 [US20240287022, Example 93]
test.target: UniProtKB Q96RQ9
recorded.result: 7.84

(I) Cn1c(=O)c(Cc2ccc(Cc3nnco3)cc2)cc2ccccc21 [US20240287022, Example 145]
(II) O=c1[nH]c2ccncc2cc1Cc1ccc2scnc2c1 [US20240287022, Example 114]
Between I and II , which one has the lower reported pEC50 value? Let me know the label of the one you choose.
I
(I: 6.81, II: 8.82)
